target: Cynomolgus monkey C5 (cynomolgus monkey, UniProt A0A2K5U1T1 19-1676); experiment: cell-based or functional assay
Measurement label: Cyno Serum AP IC50, hemolysis assay, 5% serum (nM)
Please respond with the number in nM and leave the unit unwritten.

## Task Look up Cyno Serum AP IC50, hemolysis assay, 5% serum for this binder: H4H11683N (antibody, human IgG4, V domains shown, tested with H4H prefix (human IgG4 Fc with S108P hinge mutation); variable regions follow the numerical identifier; also called H2M11683N) VH: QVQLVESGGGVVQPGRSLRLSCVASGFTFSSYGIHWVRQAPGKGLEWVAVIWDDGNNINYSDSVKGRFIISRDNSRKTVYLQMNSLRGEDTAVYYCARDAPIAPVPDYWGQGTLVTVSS VL: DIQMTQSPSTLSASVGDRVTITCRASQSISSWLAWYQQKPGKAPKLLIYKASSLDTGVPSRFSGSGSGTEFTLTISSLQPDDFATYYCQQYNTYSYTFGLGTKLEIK
## Result 7.15

## Task Entry H4H12166P (antibody, V domains shown) VH: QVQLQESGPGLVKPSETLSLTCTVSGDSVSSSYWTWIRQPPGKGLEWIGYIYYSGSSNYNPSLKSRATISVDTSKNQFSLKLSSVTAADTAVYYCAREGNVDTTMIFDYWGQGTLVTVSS VL: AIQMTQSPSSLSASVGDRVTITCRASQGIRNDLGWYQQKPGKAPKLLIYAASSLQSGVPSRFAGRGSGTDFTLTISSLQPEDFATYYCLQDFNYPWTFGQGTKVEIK : reported Cyno Serum AP IC50, hemolysis assay, 5% serum = ?
## Result 8.85

## Task Any idea what Cyno Serum AP IC50, hemolysis assay, 5% serum was measured for H4H12169P (antibody, human IgG4, V domains shown, H4H: human IgG4 Fc with S108P hinge mutation) VH: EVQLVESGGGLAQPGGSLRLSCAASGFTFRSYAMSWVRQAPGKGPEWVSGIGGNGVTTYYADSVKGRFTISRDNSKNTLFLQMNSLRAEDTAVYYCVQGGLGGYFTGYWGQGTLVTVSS VL: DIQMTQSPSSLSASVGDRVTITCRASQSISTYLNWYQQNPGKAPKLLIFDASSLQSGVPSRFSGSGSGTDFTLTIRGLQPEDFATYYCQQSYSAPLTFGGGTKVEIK ?
## Result 7.95
